Molecular target: UniProt P34972
Assay: hCB2 cAMP agonist assay (HEK-293 cells)
Type: cell-based
Details: cAMP agonist, HEK, 96-well; read-out: hCB2 EC50 (cAMP ag, nM, HEK (96-well))
Result type: EC50

Molecule	Result type	Result
CCCn1c(C)c(C(=O)c2cc3ccsc3n2CCC)c2c1CCCCC2 [Compound I-80]	EC50	< 100 nM
CCOC(=O)CCn1c(C)c(C(=O)c2cc3ccsc3n2CC)c2ccccc21 [Compound I-26]	EC50	< 100 nM
CCCn1c(C)c(C(=O)c2cc3ccsc3n2CCC)c2c1CCC(C)(C)C2 [Compound I-35]	EC50	< 100 nM
CCCn1c(C)c(C(=O)c2cc3ccsc3n2CC)c2c1CCC(C)(C)C2 [Compound I-65]	EC50	< 100 nM
CCCn1c(C)c(C(=O)c2cc3cc(Cl)sc3[nH]2)c2c1CCCC2 [Compound I-76]	EC50	100 to 1000 nM
CCCn1c(C(=O)c2c(C)n(S(=O)(=O)CC)c3ccccc23)cc2ccsc21 [Compound I-67]	EC50	100 to 1000 nM
CCn1c(C(=O)c2c[nH]c3ccccc23)cc2ccsc21 [Compound I-37]	EC50	< 100 nM

----------
Molecular target: hCB2 (Homo sapiens, UniProt P34972)
Sequence (P34972 whole entry): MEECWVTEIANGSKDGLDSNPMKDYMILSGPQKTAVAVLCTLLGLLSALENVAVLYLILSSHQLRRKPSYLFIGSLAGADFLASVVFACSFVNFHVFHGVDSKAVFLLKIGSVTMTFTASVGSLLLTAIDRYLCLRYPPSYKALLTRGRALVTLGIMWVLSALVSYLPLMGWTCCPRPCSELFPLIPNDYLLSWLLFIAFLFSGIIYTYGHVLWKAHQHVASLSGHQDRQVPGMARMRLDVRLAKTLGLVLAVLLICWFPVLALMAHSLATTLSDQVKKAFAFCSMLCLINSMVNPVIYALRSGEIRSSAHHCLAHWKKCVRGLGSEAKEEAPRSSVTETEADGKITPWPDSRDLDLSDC
Assay: hCB2 radioligand binding assay ([3H]-CP 55,940 displacement)
Conditions: hCB2 IC50 (CP displ, nM, HEK), HEK membranes

Compound structure string	IC50
CCCn1c(C)c(C(=O)c2cc3ccsc3[nH]2)c2ccccc21	100 to 1000 nM
CCn1c(C(=O)c2cn(CC3CCOCC3)c3ccccc23)cc2ccsc21	< 100 nM
C=Cn1c(C)c(C(=O)c2cc3ccsc3n2CC)c2ccccc21	100 to 1000 nM

----------
Target: hCB2 (Homo sapiens, UniProt P34972)
Assay: hCB2 radioligand binding assay ([3H]-CP 55,940 displacement)
Details: hCB2 IC50 (CP displ, nM, HEK), HEK membranes

Compound structure string	IC50
CCCn1c(C(=O)c2cn(C)c3ccccc23)cc2ccsc21	< 100 nM
CCCn1c(C)c(C(=O)c2cc3ccsc3n2CC)c2ccccc21	< 100 nM
C=CCn1cc(C(=O)c2cc3ccsc3n2CC)c2cnccc21	100 to 1000 nM
CCn1c(C(=O)c2c(C)n(CCCCl)c3ccccc23)cc2ccsc21	< 100 nM
CCCn1c(C)c(C(=O)c2c(C)[nH]c3sccc23)c2ccccc21	> 10000 nM
CCCn1c(C)c(C(=O)c2cc3ccsc3n2CC2CCOCC2)c2ccccc21	100 to 1000 nM
CCCn1c(C)c(C(=O)c2cccc3ccccc23)c2sccc21	100 to 1000 nM
CCCn1c(C(=O)c2c(C)n(C)c3ccccc23)cc2ccsc21	100 to 1000 nM
CCn1c(C(=O)c2c(C)n(CCC(=O)O)c3ccccc23)cc2ccsc21	100 to 1000 nM
CCCn1c(C)c(C(=O)c2cc3ccsc3n2CCC)c2cc(Cl)ccc21	100 to 1000 nM
CCCn1c(C)c(C(=O)c2cc3ccsc3n2CC)c2c1CCC(C)(C)C2	< 100 nM
CCCn1c(C)c(C(=O)c2cc3cc(Cl)sc3[nH]2)c2ccccc21	100 to 1000 nM
CCCn1c(C)c(C(=O)c2cc3ccsc3n2CC)c2c1CCCC2	< 100 nM
CCn1c(C(=O)c2c3c(n(CC4CCOCC4)c2C)CCCC3)cc2ccsc21	< 100 nM
CCCCn1c(C)c(C(=O)c2cc3ccsc3n2CCC)c2ccccc21	< 100 nM
CCn1c(C(=O)c2c(C)n(CC3CCOCC3)c3ccccc23)cc2ccsc21	< 100 nM
Cc1c(C(=O)c2cc3ccccc3[nH]2)c2ccsc2n1CCN1CCOCC1	100 to 1000 nM
CCCn1c(C)c(C(=O)c2cc3sccc3[nH]2)c2ccccc21	100 to 1000 nM
CCCn1c(C(=O)c2c(C)n(CCC3CCOCC3)c3ccccc23)cc2ccsc21	< 100 nM
CCCn1c(C(=O)c2c(C)n(CC3CCOCC3)c3ccccc23)cc2ccsc21	< 100 nM
CCCn1c(C(=O)c2c(C)[nH]c3ccc(C)cc23)cc2ccsc21	1000 to 10000 nM
CCCn1cc(C(=O)c2cc3ccsc3n2CCC)c2cccnc21	< 100 nM

Attribution: patent US20130178453A1
